Data origin, for the record: patent US20110065632A1

- test_system: hsst2 (Homo sapiens, UniProt P30874)
- Construct: expressed in transfected cells
- Sequence (P30874 whole entry): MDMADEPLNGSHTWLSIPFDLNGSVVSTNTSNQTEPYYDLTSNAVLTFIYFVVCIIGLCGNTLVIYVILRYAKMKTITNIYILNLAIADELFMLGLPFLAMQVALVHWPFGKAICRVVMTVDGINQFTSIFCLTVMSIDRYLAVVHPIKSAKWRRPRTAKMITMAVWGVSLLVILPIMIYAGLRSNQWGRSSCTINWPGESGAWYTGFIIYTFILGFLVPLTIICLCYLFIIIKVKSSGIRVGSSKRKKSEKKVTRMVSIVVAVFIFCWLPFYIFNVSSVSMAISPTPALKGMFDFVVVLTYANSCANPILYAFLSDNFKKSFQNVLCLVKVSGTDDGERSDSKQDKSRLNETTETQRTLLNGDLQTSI
- assay_remarks: Somatostatin receptor radioligand binding assay, hsst2
- condition_description: CHO-K1 membranes, [125I]MK-678; read-out: hsst2 Ki
Numbered stars: 1 amine (or outer) side, 2 acyl side, 3 side chain; on linkers, the order of the positions; unused ones are H or OH. Bridge positions count the residues as written; N and C are the ends. Square brackets hold non-standard residues; d marks the D form. Peptide text beside a SMILES is read from it. * marks the point of attachment. X1 = CCCN1C[C@H](CSCC(=O)*)C[C@@H]2c3cccc4[nH]cc(c34)C[C@H]21; Pipz(1-CH2CO,4-CH2CH2NH) = O=C(CN1CCN(CCN[*:1])CC1)[*:2]; Abu = CC[C@H](N)C(=O)O

{"compound": "CCNC(=O)N(CCCN(C)CC(=O)N[C@H](Cc1ccccc1)C(=O)N[C@H]1CSSC[C@@H](C(=O)N[C@H](C(N)=O)[C@@H](C)O)NC(=O)[C@H](CC)NC(=O)[C@H](CCCCN)NC(=O)[C@@H](Cc2c[nH]c3ccccc23)NC(=O)[C@H](Cc2ccc(O)cc2)NC1=O)C(=O)[C@H]1CN[C@@H]2Cc3c[nH]c4cccc(c34)[C@H]2C1", "Ki (nM)": 0.19}
{"compound": "CCCN1C[C@H](CSCC(=O)NCCN2CCN(CC(=O)NCCN3CCN(CC(=O)N[C@H](Cc4ccccc4)C(=O)N[C@H]4CSSC[C@@H](C(=O)N[C@H](C(N)=O)[C@@H](C)O)NC(=O)[C@H](CC)NC(=O)[C@H](CCCCN)NC(=O)[C@@H](Cc5c[nH]c6ccccc56)NC(=O)[C@H](Cc5ccc(O)cc5)NC4=O)CC3)CC2)C[C@@H]2c3cccc4[nH]cc(c34)C[C@H]21 [Example 36] (X1-[Pipz(1-CH2CO,4-CH2CH2NH)][Pipz(1-CH2CO,4-CH2CH2NH)][dF]CY[dW]K[Abu]CT-NH2; disulfide 4-9)", "Ki (nM)": 1.67}
{"compound": "CCCN1C[C@H](CSCC(=O)NCCCC[C@@H](NC(=O)CSC[C@@H]2C[C@@H]3c4cccc5[nH]cc(c45)C[C@H]3N(CCC)C2)C(=O)N[C@H]2CSSC[C@@H](C(=O)N[C@H](C(N)=O)[C@@H](C)O)NC(=O)[C@H](CC)NC(=O)[C@H](CCCCN)NC(=O)[C@@H](Cc3c[nH]c4ccccc34)NC(=O)[C@H](Cc3ccc(O)cc3)NC2=O)C[C@@H]2c3cccc4[nH]cc(c34)C[C@H]21", "Ki (nM)": 0.03}

---

- test_system: hsst2 (Homo sapiens)
- Construct: expressed in transfected cells
- assay_remarks: Somatostatin receptor radioligand binding assay, hsst2
- condition_description: CHO-K1 membranes, [125I]MK-678; read-out: hsst2 Ki
Bridge positions count the residues as written; N and C are the ends. Square brackets hold non-standard residues; d marks the D form. Peptide text beside a SMILES is read from it. * marks the point of attachment. X1 = CCCN1C[C@H](CSCC(=O)*)C[C@@H]2c3cccc4[nH]cc(c34)C[C@H]21; X2 = CN1C[C@H](CSCC(=O)*)C[C@@H]2c3cccc4[nH]cc(c34)C[C@H]21; Abu = CC[C@H](N)C(=O)O
This listing pairs compounds with measured Ki.

{"compound": "CCCN1C[C@H](CSCC(=O)NCCN2CCN(CC(=O)N[C@H](Cc3ccccc3)C(=O)N[C@H]3CSSC[C@@H](C(=O)N[C@H](C(N)=O)[C@@H](C)O)NC(=O)[C@H](CC)NC(=O)[C@H](CCCCN)NC(=O)[C@@H](Cc4c[nH]c5ccccc45)NC(=O)[C@H](Cc4ccc(O)cc4)NC3=O)CC2)C[C@@H]2c3cccc4[nH]cc(c34)C[C@H]21 [Example 24]", "unit_annotation": "nM", "Ki": 0.37}
{"compound": "CC[C@@H]1NC(=O)[C@H](CCCCN)NC(=O)[C@@H](Cc2c[nH]c3ccccc23)NC(=O)[C@H](Cc2ccc(O)cc2)NC(=O)[C@@H](NC(=O)[C@@H](Cc2ccc(O)cc2)NC(=O)[C@@H](Cc2ccc(O)cc2)NC(=O)[C@H](CCCCN)NC(=O)CSC[C@@H]2C[C@@H]3c4cccc5[nH]cc(c45)C[C@H]3N(C)C2)CSSC[C@@H](C(=O)N[C@H](C(N)=O)[C@@H](C)O)NC1=O [Example 33] (X2-K[dY][dY]CY[dW]K[Abu]CT-NH2; disulfide 4-9)", "unit_annotation": "nM", "Ki": 0.2}
{"compound": "CCCN1C[C@H](CSCC(=O)NCCCC[C@H](NC(=O)CSC[C@@H]2C[C@@H]3c4cccc5[nH]cc(c45)C[C@H]3N(CCC)C2)C(=O)N[C@H](Cc2ccc(O)cc2)C(=O)N[C@H](Cc2ccc(O)cc2)C(=O)N[C@H]2CSSC[C@@H](C(=O)N[C@H](C(N)=O)[C@@H](C)O)NC(=O)[C@H](CC)NC(=O)[C@H](CCCCN)NC(=O)[C@@H](Cc3c[nH]c4ccccc34)NC(=O)[C@H](Cc3ccc(O)cc3)NC2=O)C[C@@H]2c3cccc4[nH]cc(c34)C[C@H]21 [Example 10] (X1-K(X1)[dY][dY]CY[dW]K[Abu]CT-NH2; disulfide 4-9)", "unit_annotation": "nM", "Ki": 0.15}
{"compound": "CCCN1C[C@H](CSCC(=O)N[C@H](Cc2ccccc2)C(=O)N[C@H]2CSSC[C@@H](C(=O)N[C@H](C(N)=O)[C@@H](C)O)NC(=O)[C@H](CC)NC(=O)[C@H](CCCCN)NC(=O)[C@@H](Cc3c[nH]c4ccccc34)NC(=O)[C@H](Cc3ccc(O)cc3)NC2=O)C[C@@H]2c3cccc4[nH]cc(c34)C[C@H]21 [Example 31]", "unit_annotation": "nM", "Ki": 0.1}
{"compound": "CCCN1C[C@H](CSCC(=O)N[C@H](Cc2ccccc2)C(=O)N[C@H]2CSSC[C@@H](C(=O)N[C@H](C(N)=O)[C@@H](C)O)NC(=O)[C@H](C(C)C)NC(=O)[C@H](CCCCN)NC(=O)[C@@H](Cc3c[nH]c4ccccc34)NC(=O)[C@H](Cc3ccc(OC(=O)CSC[C@@H]4C[C@@H]5c6cccc7[nH]cc(c67)C[C@H]5N(CCC)C4)c(I)c3)NC2=O)C[C@@H]2c3cccc4[nH]cc(c34)C[C@H]21 [Example 3]", "unit_annotation": "nM", "Ki": 0.37}

---

# Ki per entry
- test_system: hsst5 (Homo sapiens)
- Construct: expressed in transfected cells
- Sequence (P35346 whole entry): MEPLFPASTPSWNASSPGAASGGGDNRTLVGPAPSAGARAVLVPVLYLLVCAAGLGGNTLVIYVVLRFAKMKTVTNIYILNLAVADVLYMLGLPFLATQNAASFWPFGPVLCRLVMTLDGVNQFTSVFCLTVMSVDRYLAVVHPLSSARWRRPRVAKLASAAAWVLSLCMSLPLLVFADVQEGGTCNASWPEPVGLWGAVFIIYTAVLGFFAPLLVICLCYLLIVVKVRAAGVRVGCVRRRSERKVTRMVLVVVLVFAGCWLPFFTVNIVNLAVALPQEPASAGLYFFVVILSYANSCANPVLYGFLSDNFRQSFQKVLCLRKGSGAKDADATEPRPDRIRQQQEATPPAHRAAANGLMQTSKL
- assay_remarks: Somatostatin receptor radioligand binding assay, hsst5
- condition_description: CHO-K1 membranes, [125I-Tyr11]SS-14; read-out: hsst5 Ki
Bridge positions count the residues as written; N and C are the ends. Square brackets hold non-standard residues; d marks the D form. Peptide text beside a SMILES is read from it. * marks the point of attachment. X1 = CCCN1C[C@H](CSCC(=O)*)C[C@@H]2c3cccc4[nH]cc(c34)C[C@H]21; Abu = CC[C@H](N)C(=O)O
result_type: Ki (nM)

{"compound": "CCCN1C[C@H](CSCC(=O)N[C@@H](CCCCN)C(=O)N[C@H](Cc2ccc(O)cc2)C(=O)N[C@H](Cc2ccc(O)cc2)C(=O)N[C@H]2CSSC[C@@H](C(=O)N[C@H](C(N)=O)[C@@H](C)O)NC(=O)[C@H](CC)NC(=O)[C@H](CCCCN)NC(=O)[C@@H](Cc3c[nH]c4ccccc34)NC(=O)[C@H](Cc3ccc(O)cc3)NC2=O)C[C@@H]2c3cccc4[nH]cc(c34)C[C@H]21 [Example 35] (X1-K[dY][dY]CY[dW]K[Abu]CT-NH2; disulfide 4-9)", "recorded_result": 13.6}
{"compound": "CCCN1C[C@H](CSCC(=O)N[C@H](Cc2ccccc2)C(=O)N[C@H]2CSSC[C@@H](C(=O)N[C@H](C(N)=O)[C@@H](C)O)NC(=O)[C@H](CC)NC(=O)[C@H](CCCCN)NC(=O)[C@@H](Cc3c[nH]c4ccccc34)NC(=O)[C@H](Cc3ccc(O)cc3)NC2=O)C[C@@H]2c3cccc4[nH]cc(c34)C[C@H]21 [Example 31]", "recorded_result": 22.6}
{"compound": "CCCN1C[C@H](CSCC(=O)NCCCC[C@H](NC(=O)CSC[C@@H]2C[C@@H]3c4cccc5[nH]cc(c45)C[C@H]3N(CCC)C2)C(=O)N[C@H](Cc2ccccc2)C(=O)N[C@H]2CSSC[C@@H](C(=O)N[C@H](C(N)=O)[C@@H](C)O)NC(=O)[C@H](CC)NC(=O)[C@H](CCCCN)NC(=O)[C@@H](Cc3c[nH]c4ccccc34)NC(=O)[C@H](Cc3ccc(O)cc3)NC2=O)C[C@@H]2c3cccc4[nH]cc(c34)C[C@H]21 [Example 17]", "recorded_result": 54}
